protocolConditions: in isobutanol, 313.15 K
quantityMeasured: solubility (mole fraction)

* O=C(N[C@@H](Cc1ccc(O)cc1)C(=O)O)OCC1c2ccccc2-c2ccccc21 | 0.0123

* * *

protocolConditions: in ethyl acetate, 333.15 K
quantityMeasured: solubility (mole fraction)

• O=C(N[C@@H](Cc1ccc(O)cc1)C(=O)O)OCC1c2ccccc2-c2ccccc21 = 0.0254

* * *

protocolConditions: in acetonitrile, 328.15 K
quantityMeasured: solubility (mole fraction)

* O=C(N[C@@H](Cc1ccc(O)cc1)C(=O)O)OCC1c2ccccc2-c2ccccc21 | 0.00781

* * *

protocolConditions: in n-propyl acetate, 293.15 K
quantityMeasured: solubility (mole fraction)

* O=C(N[C@@H](Cc1ccc(O)cc1)C(=O)O)OCC1c2ccccc2-c2ccccc21 | 0.00762

* * *

protocolConditions: in methyl acetate, 293.15 K
quantityMeasured: solubility (mole fraction)

* O=C(N[C@@H](Cc1ccc(O)cc1)C(=O)O)OCC1c2ccccc2-c2ccccc21 | 0.0155

* * *

protocolConditions: in methyl acetate, 308.15 K
quantityMeasured: solubility (mole fraction)

- O=C(N[C@@H](Cc1ccc(O)cc1)C(=O)O)OCC1c2ccccc2-c2ccccc21: 0.0177

* * *

protocolConditions: in acetone, 323.15 K
quantityMeasured: solubility (mole fraction)

* O=C(N[C@@H](Cc1ccc(O)cc1)C(=O)O)OCC1c2ccccc2-c2ccccc21 | 0.0959

* * *

protocolConditions: in sec-butanol, 318.15 K
quantityMeasured: solubility (mole fraction)

* O=C(N[C@@H](Cc1ccc(O)cc1)C(=O)O)OCC1c2ccccc2-c2ccccc21 | 0.0388

* * *

protocolConditions: in acetone, 313.15 K
quantityMeasured: solubility (mole fraction)

• O=C(N[C@@H](Cc1ccc(O)cc1)C(=O)O)OCC1c2ccccc2-c2ccccc21 = 0.0824

* * *

protocolConditions: in ethyl acetate, 318.15 K
quantityMeasured: solubility (mole fraction)

- O=C(N[C@@H](Cc1ccc(O)cc1)C(=O)O)OCC1c2ccccc2-c2ccccc21: 0.019

* * *

protocolConditions: in methyl acetate, 313.15 K
quantityMeasured: solubility (mole fraction)

- O=C(N[C@@H](Cc1ccc(O)cc1)C(=O)O)OCC1c2ccccc2-c2ccccc21: 0.0209

* * *

protocolConditions: in isobutanol, 323.15 K
quantityMeasured: solubility (mole fraction)

• O=C(N[C@@H](Cc1ccc(O)cc1)C(=O)O)OCC1c2ccccc2-c2ccccc21 = 0.0175

* * *

protocolConditions: in acetonitrile, 308.15 K
quantityMeasured: solubility (mole fraction)

• O=C(N[C@@H](Cc1ccc(O)cc1)C(=O)O)OCC1c2ccccc2-c2ccccc21 = 0.00382

* * *

protocolConditions: in isobutanol, 303.15 K
quantityMeasured: solubility (mole fraction)

- O=C(N[C@@H](Cc1ccc(O)cc1)C(=O)O)OCC1c2ccccc2-c2ccccc21: 0.00823

* * *

protocolConditions: in dimethyl carbonate, 313.15 K
quantityMeasured: solubility (mole fraction)

• O=C(N[C@@H](Cc1ccc(O)cc1)C(=O)O)OCC1c2ccccc2-c2ccccc21 = 0.00583

* * *

protocolConditions: in n-propyl acetate, 303.15 K
quantityMeasured: solubility (mole fraction)

- O=C(N[C@@H](Cc1ccc(O)cc1)C(=O)O)OCC1c2ccccc2-c2ccccc21: 0.00861

* * *

protocolConditions: in sec-butanol, 333.15 K
quantityMeasured: solubility (mole fraction)

• O=C(N[C@@H](Cc1ccc(O)cc1)C(=O)O)OCC1c2ccccc2-c2ccccc21 = 0.0639
